Test system: HEK-293T
Assay: Multiplex assay against HEK293T
Format: toxicity, cell-based
Conditions: human, 12 h, 10 µM, compound concentration 10 uM, replicate 2
Population Tubulin-Different-Phenotype (%) below 50% gives no; Population Tubulin-Different-Phenotype (%) at or above it gives yes.

{"columns": ["molecule", "class"],
 "data": [
  ["Cl.NCCc1ccc(O)c(O)c1 [DOPAMINE HYDROCHLORIDE]", "no"],
  ["Cl.N=C(N)NC(=O)Cc1c(Cl)cccc1Cl [GUANFACINE HYDROCHLORIDE]", "no"],
  ["N#Cc1cc(F)cc(-c2nc(-c3ccc(F)cn3)no2)c1", "no"],
  ["Cc1noc(-c2ccc(-c3ccc(CC(=O)O)cc3)cc2)c1NC(=O)O[C@H](C)c1ccccc1Cl", "no"],
  ["NCCc1cn(S(=O)(=O)c2c(Cl)nc3sccn23)c2ccccc12.O=C(O)C(=O)O", "yes"]
]}

IN: Item O=C(NCCN1CCC(n2c(=O)[nH]c3cc(Cl)ccc32)CC1)c1ccc(F)cc1 [HALOPEMIDE] with Population Tubulin-Different-Phenotype (%) of 50% or above?
OUT: yes

---

System: HEK-293T
Experiment: Multiplex assay against HEK293T
Assay type: toxicity, cell-based
Conditions: human, 12 h, 10 µM, compound concentration 10 uM, replicate 1
Consider the following molecules; for each one, report its Population Normal (%).
Numbers only, in %.

Examples with answers:
{"columns": ["compound.structure.string", "test.system", "value.units", "Population Normal (%)"],
 "data": [
  ["CN1CCN(c2cc(-c3ccccc3)nc(N)n2)CC1", "HEK-293T", "%", 92],
  ["COc1ccccc1N1CCN(C[C@@H](C(=O)NC(C)(C)C)c2ccccc2)CC1.Cl.Cl", "HEK-293T", "%", 92],
  ["CC(C)c1noc(N2CCC(COc3ccc(-c4ccc(S(C)(=O)=O)cc4)nc3)CC2)n1", "HEK-293T", "%", 86],
  ["Cc1cccc(NC(=O)CN2CCC(c3ccccn3)CC2)c1.Cl.Cl", "HEK-293T", "%", 90],
  ["CCCOc1ccc2[nH]cc(C3=CCNCC3)c2n1.Cl", "HEK-293T", "%", 89],
  ["CCc1cc2cc(NS(=O)(=O)c3ccc(C#N)cc3)ccc2n(CC)c1=O", "HEK-293T", "%", 92],
  ["CC(C)COc1ccc(CNC(=O)N(Cc2ccc(F)cc2)C2CCN(C)CC2)cc1", "HEK-293T", "%", 80],
  ["Cc1noc(-c2ccc(-c3ccc(CC(=O)O)cc3)cc2)c1NC(=O)O[C@H](C)c1ccccc1Cl", "HEK-293T", "%", 92]
]}

IN: Fill in the blank: the reported Population Normal (%) of `C[C@H](N)COC(=O)[C@@H](CCCCN)NC(=O)Cc1c(-c2ccc3ccccc3c2)[nH]c2c1ccc1ccccc12` is ____.
OUT: 88

---

System: U2OS
Test: Multiplex assay against U2OS
Format: toxicity, cell-based
Conditions: human, 48 h, 1 µM, compound concentration 1 uM, replicate 2
outcome.measure: Population Tubulin-Different-Phenotype (%)
One number for each entry, in %.

Examples with answers:
{"columns": ["molecule", "reading"],
 "data": [
  ["CN[C@@H](C)C(=O)N[C@H](C(=O)N1CCC[C@H]1C(=O)Nc1snnc1-c1ccccc1)C1CCCCC1 [GDC-0152]", 27],
  ["Cl.N=C(N)NC(=O)Cc1c(Cl)cccc1Cl [GUANFACINE HYDROCHLORIDE]", 6],
  ["CCCCC(=O)N(Cc1ccc(-c2ccccc2-c2nnn[nH]2)cc1)[C@H](C(=O)O)C(C)C", 3],
  ["CN1CCN(c2cc(-c3ccccc3)nc(N)n2)CC1", 7]
]}

Dear colleague, could you please provide Population Tubulin-Different-Phenotype (%) for the molecules listed below?
1. Cl.NCCc1ccc(O)c(O)c1 [DOPAMINE HYDROCHLORIDE]
2. Cc1noc(-c2ccc(-c3ccc(CC(=O)O)cc3)cc2)c1NC(=O)O[C@H](C)c1ccccc1Cl

OUT:
3
4

Reference source for all entries: ChEMBL document CHEMBL5058577
